The measurements presented in this section are drawn from PubChem BioAssay (NCATS).

# method notes: qHTS of pediatric cancer cell lines to identify multiple opportunities for drug repurposing: Primary screen for SK-N-MC cells (AID 1347093)
# test parameters: SK-N-MC viability, CellTiter-Glo luminescence, 48 h; series mostly up to 46 µM
# Method: Drug repurposing or repositioning has been offered as a strategy for drug development in oncology programs. […] [1] Shen, M et al. Quantitative high-throughput phenotypic screening of pediatric cancer cell lines identifies multiple opportunities for drug repurposing. […] Cells were assayed in growth media at a density of 500-1,000 cells/well. […] After a 15 min incubation at room temperature, samples were analyzed for luminescence intensity using a ViewLux High-throughput CCD imager equipped with clear filters.
Records with an inconclusive call do not appear. The source made the active and inactive calls. The call rests on the fitted dose curve; in most records, active means well fitted cell-killing curve with a large enough effect; inconclusive means small, poorly fitted or top-dose-only effect; inactive means no such curve, though single readings can be large or run the other way.
Give your call using only these classes: active, inactive

These recorded examples may help you get a feel for the data.
CC(C)(C)C(=O)NCCCC(=O)O    inactive
Cc1ncc(COP(=O)(O)O)c(C=O)c1O    inactive

*Q* Query: recorded result category for O=S(=O)(O)NC1CCCCC1 in this test
*A* inactive

*Q* Query: recorded result category for N[C@@H](CSCCCO)C(=O)O in this test
*A* inactive

*Q* Query: recorded result category for C[C@H](N)[C@H](O)c1cccc(O)c1 in this test
*A* inactive

*Q* Query: recorded result category for CCN(CC)CCNC(=O)c1c(C)[nH]c(/C=C2\C(=O)Nc3ccc(F)cc32)c1C in this test
*A* active
